Provide the recorded inhibition at 0.034 µM for the entries that follow.
studyTarget: bFGF (Homo sapiens, UniProt P09038)
Sequence (P09038 134-288 limits assumed, species assumed): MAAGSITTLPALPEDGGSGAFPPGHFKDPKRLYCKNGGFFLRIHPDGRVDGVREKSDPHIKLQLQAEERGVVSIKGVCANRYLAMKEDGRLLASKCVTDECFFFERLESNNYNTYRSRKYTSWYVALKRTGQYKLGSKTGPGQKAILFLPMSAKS
protocol: Biacore biosensor: inhibition of bFGF binding to immobilised heparin and heparan sulfate
measurementContext: immobilised heparan sulfate; inhibitor 0.034 μM, bFGF 0.034 μM; read-out: Inhibition of binding of bFGF (HS)
Method: Assays were performed using a Biacore™ 2000 optical biosensor obtained from Biacore AB, Uppsala, Sweden. The biosensor was operated in accordance with the manufacturer's instructions. […] Binding of growth factor or effector compound to the heparin or heparan sulfate was then monitored for approximately 5 minutes with the biosensor. […]
# output: bare number, implied unit %

Given item "O=S(=O)(O)O[C@H]1[C@H](OS(=O)(=O)O)[C@@H](N(CCCCCCCCCCN([C@H]2C=C[C@@H](OS(=O)(=O)O)[C@@H](OS(=O)(=O)O)[C@@H]2OS(=O)(=O)O)[C@H]2C=C[C@@H](OS(=O)(=O)O)[C@@H](OS(=O)(=O)O)[C@@H]2OS(=O)(=O)O)[C@H]2C=C[C@@H](OS(=O)(=O)O)[C@@H](OS(=O)(=O)O)[C@@H]2OS(=O)(=O)O)C=C[C@H]1OS(=O)(=O)O" , the value recorded as its inhibition at 0.034 µM is 43

Given item "O=S(=O)(O)OC(CN([C@H]1C=C[C@@H](OS(=O)(=O)O)[C@@H](OS(=O)(=O)O)[C@@H]1OS(=O)(=O)O)[C@H]1C=C[C@@H](OS(=O)(=O)O)[C@@H](OS(=O)(=O)O)[C@@H]1OS(=O)(=O)O)CN([C@H]1C=C[C@@H](OS(=O)(=O)O)[C@@H](OS(=O)(=O)O)[C@@H]1OS(=O)(=O)O)[C@H]1C=C[C@@H](OS(=O)(=O)O)[C@@H](OS(=O)(=O)O)[C@@H]1OS(=O)(=O)O" , the value recorded as its inhibition at 0.034 µM is 43

Given item "O=S(=O)(O)O[C@H]1[C@H](OS(=O)(=O)O)[C@@H](N(CCN([C@H]2C=C[C@@H](OS(=O)(=O)O)[C@@H](OS(=O)(=O)O)[C@@H]2OS(=O)(=O)O)[C@H]2C=C[C@@H](OS(=O)(=O)O)[C@@H](OS(=O)(=O)O)[C@@H]2OS(=O)(=O)O)[C@H]2C=C[C@@H](OS(=O)(=O)O)[C@@H](OS(=O)(=O)O)[C@@H]2OS(=O)(=O)O)C=C[C@H]1OS(=O)(=O)O" , the value recorded as its inhibition at 0.034 µM is 19

Given item "O=S(=O)(O)O[C@H]1[C@H](OS(=O)(=O)O)[C@@H](N(CCCCCN([C@H]2C=C[C@@H](OS(=O)(=O)O)[C@@H](OS(=O)(=O)O)[C@@H]2OS(=O)(=O)O)[C@H]2C=C[C@@H](OS(=O)(=O)O)[C@@H](OS(=O)(=O)O)[C@@H]2OS(=O)(=O)O)[C@H]2C=C[C@@H](OS(=O)(=O)O)[C@@H](OS(=O)(=O)O)[C@@H]2OS(=O)(=O)O)C=C[C@H]1OS(=O)(=O)O" , the value recorded as its inhibition at 0.034 µM is 45

Given item "O=S(=O)(O)O[C@H]1[C@H](OS(=O)(=O)O)[C@@H](N(CCCN([C@H]2C=C[C@@H](OS(=O)(=O)O)[C@@H](OS(=O)(=O)O)[C@@H]2OS(=O)(=O)O)[C@H]2C=C[C@@H](OS(=O)(=O)O)[C@@H](OS(=O)(=O)O)[C@@H]2OS(=O)(=O)O)[C@H]2C=C[C@@H](OS(=O)(=O)O)[C@@H](OS(=O)(=O)O)[C@@H]2OS(=O)(=O)O)C=C[C@H]1OS(=O)(=O)O" , the value recorded as its inhibition at 0.034 µM is 29

----------
Provide the recorded inhibition at 0.034 µM for the entries that follow.
studyTarget: VEGF (Homo sapiens)
Sequence (P15692 27-191 isoform P15692-4): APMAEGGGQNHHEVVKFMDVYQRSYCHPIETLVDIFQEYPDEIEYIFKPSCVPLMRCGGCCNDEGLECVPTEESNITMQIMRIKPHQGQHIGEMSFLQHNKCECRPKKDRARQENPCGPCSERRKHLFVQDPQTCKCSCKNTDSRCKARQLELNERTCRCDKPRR
protocol: Biacore biosensor: inhibition of VEGF binding to immobilised heparin and heparan sulfate
measurementContext: immobilised heparan sulfate; inhibitor 0.034 μM, VEGF 0.025 μM; read-out: Inhibition of binding of VEGF (HS)
# output: bare number, implied unit %

Given item "O=S(=O)(O)O[C@H]1[C@H](OS(=O)(=O)O)[C@@H](N(CCCCCN([C@H]2C=C[C@@H](OS(=O)(=O)O)[C@@H](OS(=O)(=O)O)[C@@H]2OS(=O)(=O)O)[C@H]2C=C[C@@H](OS(=O)(=O)O)[C@@H](OS(=O)(=O)O)[C@@H]2OS(=O)(=O)O)[C@H]2C=C[C@@H](OS(=O)(=O)O)[C@@H](OS(=O)(=O)O)[C@@H]2OS(=O)(=O)O)C=C[C@H]1OS(=O)(=O)O" , the value recorded as its inhibition at 0.034 µM is 30

Given item "O=S(=O)(O)OC(CN([C@H]1C=C[C@@H](OS(=O)(=O)O)[C@@H](OS(=O)(=O)O)[C@@H]1OS(=O)(=O)O)[C@H]1C=C[C@@H](OS(=O)(=O)O)[C@@H](OS(=O)(=O)O)[C@@H]1OS(=O)(=O)O)CN([C@H]1C=C[C@@H](OS(=O)(=O)O)[C@@H](OS(=O)(=O)O)[C@@H]1OS(=O)(=O)O)[C@H]1C=C[C@@H](OS(=O)(=O)O)[C@@H](OS(=O)(=O)O)[C@@H]1OS(=O)(=O)O" , the value recorded as its inhibition at 0.034 µM is 0

Given item "O=S(=O)(O)O[C@H]1[C@H](OS(=O)(=O)O)[C@@H](N(CCN([C@H]2C=C[C@@H](OS(=O)(=O)O)[C@@H](OS(=O)(=O)O)[C@@H]2OS(=O)(=O)O)[C@H]2C=C[C@@H](OS(=O)(=O)O)[C@@H](OS(=O)(=O)O)[C@@H]2OS(=O)(=O)O)[C@H]2C=C[C@@H](OS(=O)(=O)O)[C@@H](OS(=O)(=O)O)[C@@H]2OS(=O)(=O)O)C=C[C@H]1OS(=O)(=O)O" , the value recorded as its inhibition at 0.034 µM is 0

Given item "O=S(=O)(O)O[C@H]1[C@H](OS(=O)(=O)O)[C@@H](N(CCCCCCCN([C@H]2C=C[C@@H](OS(=O)(=O)O)[C@@H](OS(=O)(=O)O)[C@@H]2OS(=O)(=O)O)[C@H]2C=C[C@@H](OS(=O)(=O)O)[C@@H](OS(=O)(=O)O)[C@@H]2OS(=O)(=O)O)[C@H]2C=C[C@@H](OS(=O)(=O)O)[C@@H](OS(=O)(=O)O)[C@@H]2OS(=O)(=O)O)C=C[C@H]1OS(=O)(=O)O" , the value recorded as its inhibition at 0.034 µM is 55

Given item "O=S(=O)(O)O[C@H]1[C@H](OS(=O)(=O)O)[C@@H](N(CCCCCCCCCCN([C@H]2C=C[C@@H](OS(=O)(=O)O)[C@@H](OS(=O)(=O)O)[C@@H]2OS(=O)(=O)O)[C@H]2C=C[C@@H](OS(=O)(=O)O)[C@@H](OS(=O)(=O)O)[C@@H]2OS(=O)(=O)O)[C@H]2C=C[C@@H](OS(=O)(=O)O)[C@@H](OS(=O)(=O)O)[C@@H]2OS(=O)(=O)O)C=C[C@H]1OS(=O)(=O)O" , the value recorded as its inhibition at 0.034 µM is 53

Given item "O=S(=O)(O)O[C@H]1[C@H](OS(=O)(=O)O)[C@@H](N(CCCCCCCCN([C@H]2C=C[C@@H](OS(=O)(=O)O)[C@@H](OS(=O)(=O)O)[C@@H]2OS(=O)(=O)O)[C@H]2C=C[C@@H](OS(=O)(=O)O)[C@@H](OS(=O)(=O)O)[C@@H]2OS(=O)(=O)O)[C@H]2C=C[C@@H](OS(=O)(=O)O)[C@@H](OS(=O)(=O)O)[C@@H]2OS(=O)(=O)O)C=C[C@H]1OS(=O)(=O)O" , the value recorded as its inhibition at 0.034 µM is 71

Given item "O=S(=O)(O)O[C@H]1[C@H](OS(=O)(=O)O)[C@@H](N(CCCN([C@H]2C=C[C@@H](OS(=O)(=O)O)[C@@H](OS(=O)(=O)O)[C@@H]2OS(=O)(=O)O)[C@H]2C=C[C@@H](OS(=O)(=O)O)[C@@H](OS(=O)(=O)O)[C@@H]2OS(=O)(=O)O)[C@H]2C=C[C@@H](OS(=O)(=O)O)[C@@H](OS(=O)(=O)O)[C@@H]2OS(=O)(=O)O)C=C[C@H]1OS(=O)(=O)O" , the value recorded as its inhibition at 0.034 µM is 4

Given item "O=S(=O)(O)O[C@H]1[C@H](OS(=O)(=O)O)[C@@H](N(CCCCN([C@H]2C=C[C@@H](OS(=O)(=O)O)[C@@H](OS(=O)(=O)O)[C@@H]2OS(=O)(=O)O)[C@H]2C=C[C@@H](OS(=O)(=O)O)[C@@H](OS(=O)(=O)O)[C@@H]2OS(=O)(=O)O)[C@H]2C=C[C@@H](OS(=O)(=O)O)[C@@H](OS(=O)(=O)O)[C@@H]2OS(=O)(=O)O)C=C[C@H]1OS(=O)(=O)O" , the value recorded as its inhibition at 0.034 µM is 10

Given item "O=S(=O)(O)O[C@H]1[C@H](OS(=O)(=O)O)[C@@H](N(CCCCCCCCCN([C@H]2C=C[C@@H](OS(=O)(=O)O)[C@@H](OS(=O)(=O)O)[C@@H]2OS(=O)(=O)O)[C@H]2C=C[C@@H](OS(=O)(=O)O)[C@@H](OS(=O)(=O)O)[C@@H]2OS(=O)(=O)O)[C@H]2C=C[C@@H](OS(=O)(=O)O)[C@@H](OS(=O)(=O)O)[C@@H]2OS(=O)(=O)O)C=C[C@H]1OS(=O)(=O)O" , the value recorded as its inhibition at 0.034 µM is 54
